Cited source: patent US10208083B2

- Test system: UWB1.289 + BRCA1
- protocol_description: cells
- Format: cell-based, human
- conditions_used: Homo sapiens, UWB1289, 48 h
pIC50: −log10 of the molar value.
List of pIC50 values.
property_name: pIC50

C[C@]12CC(=O)N[C@H]3[C@@H](CCC4=CC(=O)NCC[C@@]43C)[C@@H]1CC[C@@H]2OC(=O)CCOc1ccc(N(CCCl)CCCl)cc1 ... 4.30
C[C@]12CC[C@@H]3c4ccc(OC(=O)CCOc5ccc(N(CCCl)CCCl)cc5)cc4CC[C@H]3[C@@H]1CCC(=O)N2 ... 4.06
C[C@]12CC(=O)[C@H]3[C@@H](CCC4=CC(=O)NCC[C@@]43C)[C@@H]1CC[C@@H]2OC(=O)CCOc1ccc(N(CCCl)CCCl)cc1 ... 4.38
C[C@]12CC[C@H]3[C@@H](CCC4=CC(=O)NCC[C@@]43C)[C@@H]1CC[C@@H]2OC(=O)CCOc1ccc(N(CCCl)CCCl)cc1 ... 4.40
C[C@]12CC[C@H](OC(=O)CCOc3ccc(N(CCCl)CCCl)cc3)CC1=CC(=O)N[C@@H]1[C@@H]2CC[C@]2(C)C(=O)CC[C@@H]12 ... 4.16

---

- protocol_description: in vivo
- conditions_used: female, C57Bl/6, mouse, ip
property_name: LD50 (mg/kg)

C[C@]12CC(=O)N[C@H]3[C@@H](CCC4=CC(=O)NCC[C@@]43C)[C@@H]1CC[C@@H]2OC(=O)CCOc1ccc(N(CCCl)CCCl)cc1 [Compound 16] ... 165
C[C@]12CC[C@H]3[C@@H](CCC4=CC(=O)NCC[C@@]43C)[C@@H]1CC[C@@H]2OC(=O)CCOc1ccc(N(CCCl)CCCl)cc1 [Compound 3] ... 150
C[C@]12CC(=O)[C@H]3[C@@H](CCC4=CC(=O)NCC[C@@]43C)[C@@H]1CC[C@@H]2OC(=O)CCOc1ccc(N(CCCl)CCCl)cc1 [Compound 11] ... 130
C[C@]12CC[C@H](OC(=O)Cc3ccc(N(CCCl)CCCl)cc3)C[C@@H]1CC[C@@H]1[C@@H]2CC[C@@]2(C)NC(=O)CC[C@@H]12 [ASE, reference compound] ... 50
C[C@]12CC[C@H](OC(=O)CCOc3ccc(N(CCCl)CCCl)cc3)CC1=CC(=O)N[C@@H]1[C@@H]2CC[C@]2(C)C(=O)CC[C@@H]12 [Compound 18] ... 110
C[C@]12CC[C@@H]3c4ccc(OC(=O)CCOc5ccc(N(CCCl)CCCl)cc5)cc4CC[C@H]3[C@@H]1CCC(=O)N2 [Compound 6] ... 100

---

- Tested on: UWB1.289 + BRCA1
- protocol_description: cells
- Format: cell-based, human
- conditions_used: Homo sapiens, UWB1289, 48 h
List of GI50 values.
property_name: GI50 (µM)

C[C@]12CC[C@H](OC(=O)Cc3ccc(N(CCCl)CCCl)cc3)C[C@@H]1CC[C@@H]1[C@@H]2CC[C@@]2(C)NC(=O)CC[C@@H]12 [ASE, reference compound] ... 80
C[C@]12CC(=O)N[C@H]3[C@@H](CCC4=CC(=O)NCC[C@@]43C)[C@@H]1CC[C@@H]2OC(=O)CCOc1ccc(N(CCCl)CCCl)cc1 ... 12
C[C@]12CC[C@H]3[C@@H](CCC4=CC(=O)NCC[C@@]43C)[C@@H]1CC[C@@H]2OC(=O)CCOc1ccc(N(CCCl)CCCl)cc1 ... 12

---

- Tested on: MCF-7
- protocol_description: cells
- Format: cell-based, human
- Design: unit not given here
property_name: TGI

C[C@]12CC[C@H](OC(=O)Cc3ccc(N(CCCl)CCCl)cc3)C[C@@H]1CC[C@@H]1[C@@H]2CC[C@@]2(C)NC(=O)CC[C@@H]12 [ASE, reference compound] ... 57
C[C@]12CC[C@H]3[C@@H](CCC4=CC(=O)NCC[C@@]43C)[C@@H]1CC[C@@H]2OC(=O)CCOc1ccc(N(CCCl)CCCl)cc1 [Compound 3] ... 38
C[C@]12CC(=O)N[C@H]3[C@@H](CCC4=CC(=O)NCC[C@@]43C)[C@@H]1CC[C@@H]2OC(=O)CCOc1ccc(N(CCCl)CCCl)cc1 [Compound 16] ... 36

---

- Tested on: MOLT-4
- protocol_description: cells
- Assay type: cell-based, human
- conditions_used: Homo sapiens, MOLT-4, 48 h
List of IC50 values.
property_name: IC50 (µM)

C[C@]12CC(=O)N[C@H]3[C@@H](CCC4=CC(=O)NCC[C@@]43C)[C@@H]1CC[C@@H]2OC(=O)CCOc1ccc(N(CCCl)CCCl)cc1 [Compound 16] ... 56
C[C@]12CC[C@@H]3c4ccc(OC(=O)CCOc5ccc(N(CCCl)CCCl)cc5)cc4CC[C@H]3[C@@H]1CCC(=O)N2 [Compound 6] ... 50
C[C@]12CC[C@H](OC(=O)CCOc3ccc(N(CCCl)CCCl)cc3)CC1=CC(=O)N[C@@H]1[C@@H]2CC[C@]2(C)C(=O)CC[C@@H]12 [Compound 18] ... 76

---

List of IC50 values.
- Tested on: MOLT-4
- protocol_description: cells
- Assay type: cell-based, human
- conditions_used: Homo sapiens, MOLT-4, 48 h
property_name: IC50

C[C@]12CC[C@H]3[C@@H](CCC4=CC(=O)NCC[C@@]43C)[C@@H]1CC[C@@H]2OC(=O)CCOc1ccc(N(CCCl)CCCl)cc1 ... 65 µM
C[C@]12CC[C@H](OC(=O)Cc3ccc(N(CCCl)CCCl)cc3)C[C@@H]1CC[C@@H]1[C@@H]2CC[C@@]2(C)NC(=O)CC[C@@H]12 [ASE, reference compound] ... 93 µM
C[C@]12CC(=O)[C@H]3[C@@H](CCC4=CC(=O)NCC[C@@]43C)[C@@H]1CC[C@@H]2OC(=O)CCOc1ccc(N(CCCl)CCCl)cc1 ... 45 µM

---

- System: murine P388 lymphocytic leukemia
- Set-up: species or system mice
- conditions_used: mouse, in vivo, ip
Marks after values point to notes of the source that are not given here.
property_name: T/C %

C[C@]12CC(=O)[C@H]3[C@@H](CCC4=CC(=O)NCC[C@@]43C)[C@@H]1CC[C@@H]2OC(=O)CCOc1ccc(N(CCCl)CCCl)cc1 [Compound 11] ... 622* %
C[C@]12CC[C@@H]3c4ccc(OC(=O)CCOc5ccc(N(CCCl)CCCl)cc5)cc4CC[C@H]3[C@@H]1CCC(=O)N2 [Compound 6] ... 400* %
C[C@]12CC[C@H](OC(=O)Cc3ccc(N(CCCl)CCCl)cc3)C[C@@H]1CC[C@@H]1[C@@H]2CC[C@@]2(C)NC(=O)CC[C@@H]12 [ASE, reference compound] ... 267* %

---

- System: SCOV-3 human ovarian cancer
- conditions_used: in vivo
List of OS % on Day-70 values.
property_name: OS % on Day-70

C[C@]12CC[C@@H]3c4ccc(OC(=O)CCOc5ccc(N(CCCl)CCCl)cc5)cc4CC[C@H]3[C@@H]1CCC(=O)N2 [Compound 6] ... 100%
C[C@]12CC(=O)N[C@H]3[C@@H](CCC4=CC(=O)NCC[C@@]43C)[C@@H]1CC[C@@H]2OC(=O)CCOc1ccc(N(CCCl)CCCl)cc1 [Compound 16] ... 100%
C[C@]12CC(=O)[C@H]3[C@@H](CCC4=CC(=O)NCC[C@@]43C)[C@@H]1CC[C@@H]2OC(=O)CCOc1ccc(N(CCCl)CCCl)cc1 [Compound 11] ... 100%
C[C@]12CC[C@H]3[C@@H](CCC4=CC(=O)NCC[C@@]43C)[C@@H]1CC[C@@H]2OC(=O)CCOc1ccc(N(CCCl)CCCl)cc1 [Compound 3] ... 100%
C[C@]12CC[C@H](OC(=O)Cc3ccc(N(CCCl)CCCl)cc3)C[C@@H]1CC[C@@H]1[C@@H]2CC[C@@]2(C)NC(=O)CC[C@@H]12 [ASE, reference compound] ... 80%
C[C@]12CC[C@H](OC(=O)CCOc3ccc(N(CCCl)CCCl)cc3)CC1=CC(=O)N[C@@H]1[C@@H]2CC[C@]2(C)C(=O)CC[C@@H]12 [Compound 18] ... 100%

---

List of GI50 values.
- System: UWB1.289 + BRCA1
- protocol_description: cells
- Format: cell-based, human
- conditions_used: Homo sapiens, UWB1289, 48 h
property_name: GI50 (µM)

C[C@]12CC[C@H](OC(=O)CCOc3ccc(N(CCCl)CCCl)cc3)CC1=CC(=O)N[C@@H]1[C@@H]2CC[C@]2(C)C(=O)CC[C@@H]12 ... 20
C[C@]12CC[C@@H]3c4ccc(OC(=O)CCOc5ccc(N(CCCl)CCCl)cc5)cc4CC[C@H]3[C@@H]1CCC(=O)N2 ... 18
C[C@]12CC(=O)[C@H]3[C@@H](CCC4=CC(=O)NCC[C@@]43C)[C@@H]1CC[C@@H]2OC(=O)CCOc1ccc(N(CCCl)CCCl)cc1 ... 22
